All figures here come from PubChem BioAssay (NCI).

Tested on: SN12C renal
Experimental Details: NCI-60 one-dose screen, 48 h (100 = growth as untreated, 0 = no growth, -100 = all killed)
Experimental Context: 10 µM unless noted
This is part of a sample that, as a whole, favours compounds with a hit. Of some 83,000 tested, about 20% had one in any assay.
Outcome label depends on growth relative to 60%: at/above gives label 1, below gives label 0.

Compound: CCOc1ccc2[nH]c(=O)c(C(c3nnnn3CC3CCCO3)N3CCN(Cc4ccccc4)CC3)cc2c1 (stereo not given)
Category Label: label 1
--
Compound: OC(c1ccccc1)(c1ccccc1)C1CCN(c2ccc3nnc(Cl)n3n2)CC1
Category Label: label 0
--
Compound: CCOC(=O)c1ccc(NC(=S)NC(=O)c2ccc(NC(=O)C(C)C)cc2OC)cc1
Category Label: label 1
--
Compound: O=C1Nc2ccccc2/C1=C\c1ccc(OCC(=O)c2ccc(Br)cc2)cc1
Category Label: label 1
--
Compound: COc1cc2cc(C(=O)N3C[C@@H](CCl)c4c3cc(OC(=O)N(CCC(=O)N3CCN(C)CC3)C3CCCCC3)c3ccccc43)[nH]c2c(OC)c1OC
Category Label: label 0
